All figures here come from BigSolDB 2.1.

Recorded conditions: in acetonitrile, 313.15 K
Observed property: solubility (mole fraction)
A bare number is all that is needed in reply.

Identify measured solubility (mole fraction) corresponding to CC(=O)Oc1ccc(C(c2ccc(OC(C)=O)cc2)c2ccccn2)cc1
0.00308

====

Recorded conditions: in n-propanol, 303.15 K
Observed property: solubility (mole fraction)
A bare number is all that is needed in reply.

Identify measured solubility (mole fraction) corresponding to CC(=O)Oc1ccc(C(c2ccc(OC(C)=O)cc2)c2ccccn2)cc1
0.000199

====

Recorded conditions: in acetonitrile, 288.15 K
Observed property: solubility (mole fraction)

Identify measured solubility (mole fraction) corresponding to CC(=O)Oc1ccc(C(c2ccc(OC(C)=O)cc2)c2ccccn2)cc1
0.0016
